# TESTED_ON: Tyrosine-protein kinase JAK3 (Homo sapiens)
# Sequence (P52333 whole entry): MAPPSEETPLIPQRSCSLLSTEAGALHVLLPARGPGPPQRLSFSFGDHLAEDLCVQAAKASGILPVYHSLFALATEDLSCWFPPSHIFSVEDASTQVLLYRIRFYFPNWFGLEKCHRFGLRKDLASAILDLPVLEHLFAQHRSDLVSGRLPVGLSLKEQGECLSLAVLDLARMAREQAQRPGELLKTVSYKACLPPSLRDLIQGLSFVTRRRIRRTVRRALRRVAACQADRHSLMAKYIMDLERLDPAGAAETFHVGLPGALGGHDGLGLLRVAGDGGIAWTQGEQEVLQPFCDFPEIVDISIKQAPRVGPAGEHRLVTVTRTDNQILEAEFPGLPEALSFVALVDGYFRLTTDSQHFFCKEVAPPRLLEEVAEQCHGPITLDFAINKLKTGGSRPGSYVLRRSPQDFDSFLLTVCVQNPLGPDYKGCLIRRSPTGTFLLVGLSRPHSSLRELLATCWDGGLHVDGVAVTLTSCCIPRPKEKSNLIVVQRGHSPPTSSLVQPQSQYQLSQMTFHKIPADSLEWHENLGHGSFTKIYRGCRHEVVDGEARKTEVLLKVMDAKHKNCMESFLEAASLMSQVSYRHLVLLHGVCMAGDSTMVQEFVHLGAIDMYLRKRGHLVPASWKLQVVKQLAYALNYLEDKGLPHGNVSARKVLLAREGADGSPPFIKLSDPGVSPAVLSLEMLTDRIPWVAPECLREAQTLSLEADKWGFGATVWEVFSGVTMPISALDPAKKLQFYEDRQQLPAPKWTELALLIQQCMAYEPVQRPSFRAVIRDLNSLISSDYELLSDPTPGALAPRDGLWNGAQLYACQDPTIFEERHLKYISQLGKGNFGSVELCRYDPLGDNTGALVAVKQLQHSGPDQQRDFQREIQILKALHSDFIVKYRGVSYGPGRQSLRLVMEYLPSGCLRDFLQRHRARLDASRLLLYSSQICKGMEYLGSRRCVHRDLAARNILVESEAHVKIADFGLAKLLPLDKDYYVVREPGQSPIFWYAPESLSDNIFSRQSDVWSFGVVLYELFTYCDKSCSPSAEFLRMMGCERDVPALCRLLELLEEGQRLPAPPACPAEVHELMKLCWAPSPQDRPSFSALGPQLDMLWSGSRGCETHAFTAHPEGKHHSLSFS
# METHOD_SUMMARY: Inhibition of N-terminal GST fused recombinant JAK3 (781 to 1124 amino acids) (unknown origin) expressed in insect cells using ATP and peptide substrate (5FAM-GEEPLYWSFPAKKK-NH2
pIC50: −log10 of the molar value.
RECORDED_ENDPOINT: pIC50

Recorded pIC50, per entry:
| STRUCTURE_STRING | TESTED_ON | REPORTED_VALUE |
| --- | --- | --- |
| CC[C@H](C(=O)Nc1cccc2c(-c3nc(Nc4cn(C)nc4C)ncc3F)c[nH]c12)N1CCN(C)CC1 | Tyrosine-protein kinase JAK3 (Homo sapiens) | < 4.52 |
| COC[C@H](C(=O)Nc1cccc2c(-c3nc(Nc4cn(C)nc4C)ncc3F)c[nH]c12)N1CCN(C)CC1 | Tyrosine-protein kinase JAK3 (Homo sapiens) | < 4.52 |

Turning to the following molecule.
query: Please state recorded pIC50 (tested on Tyrosine-protein kinase JAK3 (Homo sapiens)) of CCOc1nn(C)cc1Nc1ncc(C)c(-c2c[nH]c3c(NC(=O)[C@@H](CC)N4CCN(C)CC4)cccc23)n1
result: < 4.52

The values you see were collected from ChEMBL document CHEMBL4020810.
